- System: RXF 393
- PROCEDURE_TEXT: NCI tumour cell line growth inhibition, 48 h
Activity calls are given as the source filed them. Cut-off read from the data, not from the text of the source: active = GI50 up to about 1.1 µM and inactive = higher.
Respond using exactly one of the listed classes: Y (active), N (inactive)

O=C(CC1C(=O)Nc2ccccc2S1(=O)=O)Nc1cc(Cl)ccc1Cl (configuration not stated) ... N
COC(=O)C1=NN2c3ccccc3C(=O)OCCC2(C)C1 (configuration not stated) ... N
CN(CCO)/N=N/c1[nH]cnc1C(N)=O ... N
O=[N+]([O-])c1ccc(/C=C/c2cc(-c3ccccc3)nc3ccc4ccccc4c23)cc1 ... N
Nc1nc(SCCC/C=C/I)nc2c1ncn2C1OC(COP(=O)(O)O)C(O)C1O (configuration not stated) ... N
CCc1ccc(/C=C/C(=O)C2CN(CC)CCC2(O)/C=C/c2ccc(CC)cc2)cc1 (configuration not stated) ... N

(Q) Can you look up the reported call for CC1=C(C(=O)Nc2ccccc2)C(c2ccccc2)C(C(=O)Nc2ccccc2)=C(C)N1 for me?
(A) N

(Q) Would you mind telling me which call this test gave Nc1n[nH]c(Nc2ccc(Cl)cc2)c1P(=O)(c1ccccc1)c1ccccc1 ?
(A) N

(Q) // return assay outcome for CCOc1c(OC)cc(C2c3cc4c(c(OCC)c3CC3COC(=O)C32)OCO4)cc1OC (configuration not stated)
(A) N
